# testSystem: human α2β3γ2 GABAA receptor (Homo sapiens, UniProt P18507+P47869)
# Construct: expressed in transfected cells; host or cells: Xenopus laevis oocytes injected with capped cRNA (α:β:γ 1:1:1)
# Sequence (P47869 29-451): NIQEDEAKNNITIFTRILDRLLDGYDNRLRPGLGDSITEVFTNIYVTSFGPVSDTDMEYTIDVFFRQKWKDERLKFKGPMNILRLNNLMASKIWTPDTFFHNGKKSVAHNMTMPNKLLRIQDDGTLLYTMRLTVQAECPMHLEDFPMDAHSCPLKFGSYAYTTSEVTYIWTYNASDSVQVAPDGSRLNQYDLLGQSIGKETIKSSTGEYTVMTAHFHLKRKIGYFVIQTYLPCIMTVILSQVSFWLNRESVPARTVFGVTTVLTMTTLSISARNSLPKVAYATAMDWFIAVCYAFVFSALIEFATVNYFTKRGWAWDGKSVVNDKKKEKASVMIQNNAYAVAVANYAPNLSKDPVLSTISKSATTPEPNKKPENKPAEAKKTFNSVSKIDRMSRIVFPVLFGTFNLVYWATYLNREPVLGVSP
# Sequence (P18507 40-475): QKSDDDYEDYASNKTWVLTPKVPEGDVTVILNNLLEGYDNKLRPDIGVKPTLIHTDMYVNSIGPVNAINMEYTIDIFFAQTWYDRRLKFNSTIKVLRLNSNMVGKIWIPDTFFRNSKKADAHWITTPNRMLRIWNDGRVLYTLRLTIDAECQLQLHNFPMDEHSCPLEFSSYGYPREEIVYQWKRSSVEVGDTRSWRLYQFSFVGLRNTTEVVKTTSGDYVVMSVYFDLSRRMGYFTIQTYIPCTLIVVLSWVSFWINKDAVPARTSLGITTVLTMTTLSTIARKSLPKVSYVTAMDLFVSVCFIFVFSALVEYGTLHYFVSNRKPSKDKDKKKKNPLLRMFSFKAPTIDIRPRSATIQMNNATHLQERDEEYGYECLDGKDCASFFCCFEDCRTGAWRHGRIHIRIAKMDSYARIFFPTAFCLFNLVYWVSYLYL
# Sequence (P28472 26-473 partner): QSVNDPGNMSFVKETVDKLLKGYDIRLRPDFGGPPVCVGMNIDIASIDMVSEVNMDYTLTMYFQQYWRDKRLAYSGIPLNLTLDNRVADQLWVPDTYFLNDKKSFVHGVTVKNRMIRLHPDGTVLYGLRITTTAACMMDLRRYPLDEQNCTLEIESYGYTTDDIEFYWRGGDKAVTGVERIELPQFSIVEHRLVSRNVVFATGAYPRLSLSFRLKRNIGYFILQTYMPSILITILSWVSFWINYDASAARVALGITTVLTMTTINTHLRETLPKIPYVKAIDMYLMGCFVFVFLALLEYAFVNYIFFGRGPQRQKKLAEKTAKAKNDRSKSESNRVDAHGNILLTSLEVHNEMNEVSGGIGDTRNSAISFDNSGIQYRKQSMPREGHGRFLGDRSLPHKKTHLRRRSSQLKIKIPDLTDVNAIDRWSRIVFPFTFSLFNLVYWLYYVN
# assayText: Two-electrode voltage-clamp in Xenopus oocytes, potentiation of GABA EC10 current, GABAA2
# Type: cell-based
# experimentalContext: percentage potentiation of GABA EC10 current divided by that of diazepam control
Tick Condition met if Relative Potentiation for GABAA2 is 0.3 or greater. Tick Condition not met if Relative Potentiation for GABAA2 is less than 0.3.

Some entries whose results are on file:
CCCNC(=O)c1nnc2c(-c3ccc(OC)c(F)c3)cccc2c1N :: Condition not met
CCCNC(=O)c1nnc2c(-c3cncc(OC)c3)cccc2c1N :: Condition met
CCCNC(=O)c1nnc2c(-c3cc(F)ccc3OC)c(F)ccc2c1N :: Condition not met
CCNC(=O)c1nnc2c(-c3cnc(OC)nc3OC)cccc2c1N :: Condition met

Shifting focus to the molecule that follows.
Query: Reported Relative Potentiation for GABAA2 at or above 0.3? CCCNC(=O)c1nnc2c(-c3cnc(OC)nc3OC)c(F)ccc2c1N
Response: Condition met

* * *

# testSystem: human α2β3γ2 GABAA receptor (Homo sapiens, UniProt P18507+P47869)
# Construct: expressed in transfected cells; host or cells: Xenopus laevis oocytes injected with capped cRNA (α:β:γ 1:1:1)
# assayText: Two-electrode voltage-clamp in Xenopus oocytes, potentiation of GABA EC10 current, GABAA2
# Type: cell-based
# experimentalContext: percentage potentiation of GABA EC10 current divided by that of diazepam control
Please go through the items and note down their Relative Potentiation for GABAA2.

Below: 5 molecules and their reported Relative Potentiation for GABAA2.
CCCNC(=O)c1nnc2c(-c3cnccn3)cccc2c1N :: −0.01
CCCNC(=O)c1nnc2c(-c3cccc(C(=O)N4CCC4)c3)cccc2c1N :: −0.0075
CCCNC(=O)c1nnc2c(-c3ccc4[nH]ccc4c3)cccc2c1N :: 0.16
CCCNC(=O)c1nnc2c(-c3ccc(OC(F)(F)F)cc3)cccc2c1N :: 0.04
CCCNC(=O)c1nnc2c(-c3cnccc3C)cccc2c1N :: 0.11

Could you tell me Relative Potentiation for GABAA2 for each of these molecules? They are listed below.
1. CCNC(=O)c1nnc2c(-c3cnccc3OC)cccc2c1N
2. CCCNC(=O)c1nnc2c(-c3cc(C)ccc3F)cccc2c1N
3. COc1cccc(F)c1-c1cccc2c(N)c(C(=O)NC3CC3)nnc12
4. CCCNC(=O)c1nnc2c(-c3cc(C(F)(F)F)ccc3F)cccc2c1N
5. CCCNC(=O)c1nnc2c(-c3cnn(C)c3)cccc2c1N
6. COc1ccc(-c2cccc3c(N)c(C(=O)NC4CCC4)nnc23)c(OC)c1

Response:
0.28
0.37
0.16
0.59
0.16
0.243

* * *

# testSystem: human α2β3γ2 GABAA receptor (Homo sapiens, UniProt P18507+P47869)
# Construct: expressed in transfected cells; host or cells: Xenopus laevis oocytes injected with capped cRNA (α:β:γ 1:1:1)
# assayText: Two-electrode voltage-clamp in Xenopus oocytes, potentiation of GABA EC10 current, GABAA2
# Format: cell-based
# experimentalContext: percentage potentiation of GABA EC10 current divided by that of diazepam control
Hi there, I'd appreciate the recorded Relative Potentiation for GABAA2 for every entry that follows.
Give bare numbers.

Please review the entries below; each comes with its answer.
CCCNC(=O)c1nnc2c(-c3ccc(OC)c(C)c3)cccc2c1N :: 0.27
CCCCNC(=O)c1nnc2c(-c3cnccc3OC)cccc2c1N :: 0.52
CCCNC(=O)c1nnc2c(-c3cc(F)c(OC)cc3F)cccc2c1N :: 0.21
CCCNC(=O)c1nnc2c(-c3cc(OC)ccc3Cl)c(F)ccc2c1N :: 0.19
Cc1ccc(-c2cccc3c(N)c(C(=O)NC4CC4)nnc23)cn1 :: 0.074
COc1ccc(F)cc1-c1cccc2c(N)c(C(=O)NC3CC3)nnc12 :: 0.357
COc1ccncc1-c1cccc2c(N)c(C(=O)NC3CC3)nnc12 :: 0.337
CCCNC(=O)c1nnc2c(-c3cnc(OC)c(Cl)c3)cccc2c1N :: 0.04

Hi there! I need Relative Potentiation for GABAA2 for each item below, if you can.
1. CCCNC(=O)c1nnc2c(-c3cc(OC)ccc3C)cccc2c1N
2. Nc1c(C(=O)NCC2CC2)nnc2c(-c3ccccc3)cccc12
3. CCCNC(=O)c1nnc2c(-c3cc(Cl)ccc3Cl)cccc2c1N

Response:
0.22
0.24
0.21

* * *

# testSystem: human α2β3γ2 GABAA receptor (Homo sapiens, UniProt P18507+P47869)
# Construct: expressed in transfected cells; host or cells: Xenopus laevis oocytes injected with capped cRNA (α:β:γ 1:1:1)
# assayText: Two-electrode voltage-clamp in Xenopus oocytes, potentiation of GABA EC10 current, GABAA2
# Format: cell-based
# experimentalContext: percentage potentiation of GABA EC10 current divided by that of diazepam control
Entries whose Relative Potentiation for GABAA2 is below 0.2 take 1; entries at or above 0.2 take -1.

Use the examples below as a reference point.
CCCNC(=O)c1nnc2c(-c3cccc(OC(F)(F)F)c3)cccc2c1N :: -1
CCCNC(=O)c1nnc2c(-c3ccc(OC)nc3OC)cccc2c1N :: -1
CCCNC(=O)c1nnc2c(-c3ccccn3)cccc2c1N :: 1
CCCNC(=O)c1nnc2c(-c3cc(C(F)(F)F)ccc3Cl)cccc2c1N :: -1
CCCNC(=O)c1nnc2c(-c3cnc(OC)nc3OC)c(Cl)ccc2c1N :: -1

Query: Lab note: Relative Potentiation for GABAA2 threshold 0.2. Does this molecule come in strictly under it? CCCNC(=O)c1nnc2c(-c3cc(OC)c(OC)c(OC)c3)cccc2c1N
Response: -1

Query: // query: CCCNC(=O)c1nnc2c(-c3ccc(Cl)cc3)c(F)ccc2c1N
Response: 1

Query: Item: CCCNC(=O)c1nnc2c(-c3ccccc3)c(F)ccc2c1N
Response: 1

Query: Now try CCCNC(=O)c1nnc2c(-c3cc(F)ccc3F)c(F)ccc2c1N .
Response: 1

Query: How about CCCNC(=O)c1nnc2c(-c3ccc(OC)c(OC)c3)cccc2c1N ?
Response: -1

Query: Okay, and CCCNC(=O)c1nnc2c(-c3ccc(C)nc3)cccc2c1N ?
Response: 1

* * *

# testSystem: human α1β2γ2 GABAA receptor (Homo sapiens, UniProt P14867+P18507)
# Construct: expressed in transfected cells; host or cells: Xenopus laevis oocytes injected with capped cRNA
# Sequence (P14867 28-456): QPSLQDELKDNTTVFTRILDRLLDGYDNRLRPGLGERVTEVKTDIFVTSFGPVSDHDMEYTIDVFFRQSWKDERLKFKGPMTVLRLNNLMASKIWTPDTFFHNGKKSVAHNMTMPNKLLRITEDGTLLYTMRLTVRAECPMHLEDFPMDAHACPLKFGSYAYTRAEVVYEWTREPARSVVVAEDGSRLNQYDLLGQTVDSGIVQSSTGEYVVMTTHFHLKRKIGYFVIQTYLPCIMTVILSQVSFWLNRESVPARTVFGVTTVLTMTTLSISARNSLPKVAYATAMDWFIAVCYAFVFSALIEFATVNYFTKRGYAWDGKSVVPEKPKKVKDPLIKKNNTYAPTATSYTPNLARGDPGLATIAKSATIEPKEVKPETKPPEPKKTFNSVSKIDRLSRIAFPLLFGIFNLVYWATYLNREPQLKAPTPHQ
# Sequence (P47870 25-512 partner limits assumed): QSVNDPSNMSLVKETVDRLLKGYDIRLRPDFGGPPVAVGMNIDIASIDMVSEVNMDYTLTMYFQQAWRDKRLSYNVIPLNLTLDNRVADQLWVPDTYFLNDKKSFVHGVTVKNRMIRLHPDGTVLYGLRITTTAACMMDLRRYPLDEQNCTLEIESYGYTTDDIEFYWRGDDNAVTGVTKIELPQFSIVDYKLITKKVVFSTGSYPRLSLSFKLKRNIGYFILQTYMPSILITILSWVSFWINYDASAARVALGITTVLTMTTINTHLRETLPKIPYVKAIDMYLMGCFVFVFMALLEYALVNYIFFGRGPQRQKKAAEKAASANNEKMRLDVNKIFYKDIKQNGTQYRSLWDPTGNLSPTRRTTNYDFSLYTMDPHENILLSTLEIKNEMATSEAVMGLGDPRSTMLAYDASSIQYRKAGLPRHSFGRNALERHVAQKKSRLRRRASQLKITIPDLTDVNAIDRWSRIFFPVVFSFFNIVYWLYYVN
# Sequence (P18507 40-475): as the sequence (P18507 40-475) above
# assayText: Two-electrode voltage-clamp in Xenopus oocytes, potentiation of GABA EC10 current, GABAA1
# Assay type: cell-based
# experimentalContext: percentage potentiation of GABA EC10 current divided by that of diazepam control
Provide the reported Relative Potentiation for GABAA1 of each item.

Record excerpt, results attached:
CCCNC(=O)c1nnc2c(-c3cc(C)c(OC)c(C)c3)cccc2c1N :: 0.79
CCCNC(=O)c1nnc2c(-c3ccc(OC(F)(F)F)cc3)cccc2c1N :: 0.32
CCCNC(=O)c1nnc2c(-c3cc(C(F)(F)F)ccc3F)cccc2c1N :: 0.41

The following molecules each have a reported value; give each one's Relative Potentiation for GABAA1.
1. CCCNC(=O)c1nnc2c(-c3cc(OC)cc(OC)c3)cccc2c1N
2. CCCNC(=O)c1nnc2c(-c3cccc(Cl)c3)cccc2c1N
3. CCCNC(=O)c1nnc2c(-c3cccc(C(=O)N4CCC4)c3)cccc2c1N
4. CCCNC(=O)c1nnc2c(-c3cccc(S(C)(=O)=O)c3)cccc2c1N
5. COc1ccncc1-c1cccc2c(N)c(C(=O)NC3CC3)nnc12

Response:
1: 0.28; 2: 0.18; 3: 0.19; 4: 0.34; 5: 0.077

* * *

# testSystem: human α2β3γ2 GABAA receptor (Homo sapiens, UniProt P18507+P47869)
# Construct: expressed in transfected cells; host or cells: Xenopus laevis oocytes injected with capped cRNA (α:β:γ 1:1:1)
# assayText: Two-electrode voltage-clamp in Xenopus oocytes, potentiation of GABA EC10 current, GABAA2
# Assay type: cell-based
# experimentalContext: percentage potentiation of GABA EC10 current divided by that of diazepam control
observationType: Relative Potentiation for GABAA2
Give bare numbers.

Recorded results for 5 compounds are shown here.
CCCNC(=O)c1nnc2c(-c3cc(F)ccc3C)c(F)ccc2c1N :: 0.12
CCCNC(=O)c1nnc2c(-c3cccnc3OC)cccc2c1N :: 0.097
CCCCNC(=O)c1nnc2c(-c3cnc(OC)nc3OC)cccc2c1N :: 0.45
CCCNC(=O)c1nnc2c(-c3cc(F)ccc3OC)cccc2c1N :: 0.4
CCCNC(=O)c1nnc2c(-c3ccc(OC)cc3F)c(F)ccc2c1N :: 0.18

Okay, here is my list. What is Relative Potentiation for GABAA2 for each of these?
1. CNC(=O)c1nnc2c(-c3cc(C)ccc3OC)cccc2c1N
2. CCCNC(=O)c1nnc2c(-c3cc(OC)ccc3F)cccc2c1N
3. CCCNC(=O)c1nnc2c(-c3cccc(F)c3OC)cccc2c1N
4. CCCNC(=O)c1nnc2c(-c3cccc(OC)c3F)cccc2c1N
5. CCCNC(=O)c1nnc2c(-c3cccnc3F)cccc2c1N
6. CCCNC(=O)c1nnc2c(-c3cc(OC)cc(OC)c3)cccc2c1N

Response:
1: 0.43; 2: 0.32; 3: 0.11; 4: 0.26; 5: 0.17; 6: 0.57
